Taken from ChEMBL document CHEMBL1629474.

inhibition for assorted molecules
Target: UniProt P52270
Sequence (P52270 whole entry): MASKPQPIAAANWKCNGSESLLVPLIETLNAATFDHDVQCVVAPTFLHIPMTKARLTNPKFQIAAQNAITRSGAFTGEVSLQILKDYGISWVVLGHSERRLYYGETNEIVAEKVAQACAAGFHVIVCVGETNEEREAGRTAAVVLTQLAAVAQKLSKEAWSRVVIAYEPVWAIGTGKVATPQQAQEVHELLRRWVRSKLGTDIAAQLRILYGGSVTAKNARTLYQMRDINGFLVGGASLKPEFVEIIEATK
Assay: Inhibition of Trypanosoma cruzi triosephosphate isomerase at 400 uM after 2 hrs

- molecule: "CCOC(=O)CN(Cc1ccc(OC)cc1)c1ccc([N+](=O)[O-])cc1[N+](=O)[O-]"
  experimental_target: "UniProt P52270"
  inhibition: "10%"
- molecule: "CCCN(CCC(C)C1CC=C(C)CC1)Cc1ccc2c(c1)=[N+]([O-])C(C)(C)[N+]=2[O-] (stereo not given)"
  experimental_target: "UniProt P52270"
  inhibition: "4%"
- molecule: "[O-][n+]1onc2ccc(/C=C/c3ccc4c(c3)OCO4)cc21"
  experimental_target: "UniProt P52270"
  inhibition: "70%"
- molecule: "[O-][N+]1=c2cc(Cl)c(Cl)cc2=[N+]([O-])C12CCCC2"
  experimental_target: "UniProt P52270"
  inhibition: "56%"
- molecule: "CCOC(=O)c1nsc(-c2cc(C(C)(C)C)c(O)c(C(C)(C)C)c2)n1"
  experimental_target: "UniProt P52270"
  inhibition: "65%"
